Biological target: UniProtKB Q5VWK5
Sequence (Q5VWK5 24-629): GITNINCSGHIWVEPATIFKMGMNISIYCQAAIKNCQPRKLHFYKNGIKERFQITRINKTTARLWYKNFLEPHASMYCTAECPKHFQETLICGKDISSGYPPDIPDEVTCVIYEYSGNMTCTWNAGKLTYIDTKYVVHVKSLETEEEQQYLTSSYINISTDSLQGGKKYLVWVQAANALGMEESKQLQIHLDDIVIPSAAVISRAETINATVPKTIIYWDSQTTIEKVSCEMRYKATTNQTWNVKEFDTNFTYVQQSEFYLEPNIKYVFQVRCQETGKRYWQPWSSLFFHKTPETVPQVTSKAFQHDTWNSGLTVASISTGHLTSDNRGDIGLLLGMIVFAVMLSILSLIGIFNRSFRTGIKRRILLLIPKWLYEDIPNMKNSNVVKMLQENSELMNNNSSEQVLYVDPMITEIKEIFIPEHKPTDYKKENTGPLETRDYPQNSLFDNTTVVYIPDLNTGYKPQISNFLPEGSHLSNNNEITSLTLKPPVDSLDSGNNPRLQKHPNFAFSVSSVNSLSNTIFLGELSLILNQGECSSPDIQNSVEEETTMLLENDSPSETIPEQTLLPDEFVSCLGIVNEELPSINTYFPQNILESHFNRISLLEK
Assay: DB cells IL23R pSTAT3 cell assay (pStat3 HTRF)
Format: cell-based
Settings: Table E3; DB cells, IL-23 0.5 nM, 30 minutes at 37° C.; read-out: pStat3 HTRF (IC50)
Numbered stars: 1 amine (or outer) side, 2 acyl side, 3 side chain; on linkers, the order of the positions; unused ones are H or OH. Bridge positions count the residues as written; N and C are the ends. Square brackets hold non-standard residues; d marks the D form. Peptide text beside a SMILES is read from it. X2 = CCCc1cccc2c(C[C@H](N[*:1])C(=O)[*:2])c[nH]c12; Trp(7-Me) = Cc1cccc2c(C[C@H](N)C(=O)O)c[nH]c12; 2Nal = N[C@@H](Cc1ccc2ccccc2c1)C(=O)O; AEF = NCCOc1ccc(C[C@H](N)C(=O)O)cc1; Cit = NC(=O)NCCC[C@H](N)C(=O)O; Pen = CC(C)(S)[C@H](N)C(=O)O; αMeK = C[C@](N)(CCCCN)C(=O)O

>  <molecule>
CC(=O)NCCCC[C@H](NC(=O)[C@](C)(CCCCN)NC(=O)[C@H](Cc1ccc2ccccc2c1)NC(=O)[C@H](Cc1ccc(OCCN)cc1)NC(=O)[C@H]1NC(=O)[C@H](CCCNC(N)=O)NC(=O)[C@H](Cc2c[nH]c3c(C)cccc23)NC(=O)[C@H]([C@@H](C)O)NC(=O)[C@H](CC(N)=O)NC(=O)[C@@H](NC(C)=O)C(C)(C)SSC1(C)C)C(=O)N[C@@H](CC(N)=O)C(=O)N[C@H](Cc1ccc(O)cc1)C(N)=O [compound 259] (Ac-[Pen]NT[Trp(7-Me)][Cit][Pen][AEF][2Nal][αMeK]K(Ac)N[dY]-NH2; disulfide 1-6)

>  <study target>
UniProtKB Q5VWK5

>  <IC50>
< 1 nM

$$$$
>  <molecule>
CC(=O)NCCCC[C@H](NC(=O)[C@](C)(CC(C)C)NC(=O)[C@H](Cc1ccc2ccccc2c1)NC(=O)[C@H](Cc1ccc(OCCN)cc1)NC(=O)[C@H]1NC(=O)[C@H](CCC(N)=O)NC(=O)[C@H](Cc2c[nH]c3c(C)cccc23)NC(=O)[C@H]([C@@H](C)O)NC(=O)[C@H](CC(N)=O)NC(=O)[C@@H](NC(C)=O)C(C)(C)SSC1(C)C)C(=O)N1CCC[C@H]1C(=O)NCCC(N)=O

>  <study target>
UniProtKB Q5VWK5

>  <IC50>
> 100 nM

$$$$
>  <molecule>
CC(=O)NCCCC[C@H](NC(=O)[C@](C)(CC(C)C)NC(=O)[C@H](Cc1ccc2ccccc2c1)NC(=O)[C@H](Cc1ccc(OCCN)cc1)NC(=O)[C@H]1NC(=O)[C@H](CCC(N)=O)NC(=O)[C@H](Cc2c[nH]c3c(C)cccc23)NC(=O)[C@H]([C@@H](C)O)NC(=O)[C@H](CC(N)=O)NC(=O)[C@@H](NC(C)=O)C(C)(C)SSC1(C)C)C(=O)N[C@@H](CO)C(=O)NCCC(N)=O

>  <study target>
UniProtKB Q5VWK5

>  <IC50>
1 to 10 nM

$$$$
>  <molecule>
CCCc1cccc2c(C[C@@H]3NC(=O)[C@H]([C@@H](C)O)NC(=O)[C@H](CC(N)=O)NC(=O)[C@@H](NC(C)=O)C(C)(C)SSC(C)(C)[C@@H](C(=O)N[C@@H](Cc4ccc(OCCN)cc4)C(=O)N[C@@H](Cc4ccc5ccccc5c4)C(=O)N[C@@](C)(CCCCN)C(=O)N[C@@H](CCCCNC(C)=O)C(=O)N[C@@H](CC(N)=O)C(=O)N[C@H](CC(C)C)C(N)=O)NC(=O)[C@H](CCCCNC(C)=O)NC3=O)c[nH]c12 [compound 285] (Ac-[Pen]NT[X2]K(Ac)[Pen][AEF][2Nal][αMeK]K(Ac)N[dL]-NH2; disulfide 1-6)

>  <study target>
UniProtKB Q5VWK5

>  <IC50>
< 1 nM

$$$$
>  <molecule>
CC(=O)NCCCC[C@H](NC(=O)[C@](C)(CC(C)C)NC(=O)[C@H](Cc1ccc2ccccc2c1)NC(=O)[C@H](Cc1ccc(OCCN)cc1)NC(=O)[C@H]1NC(=O)[C@H](CCC(N)=O)NC(=O)[C@H](Cc2c[nH]c3c(C)cccc23)NC(=O)[C@H]([C@@H](C)O)NC(=O)[C@H](CC(N)=O)NC(=O)[C@@H](NC(C)=O)C(C)(C)SSC1(C)C)C(=O)N[C@H](CC(C)C)C(=O)NCCC(N)=O

>  <study target>
UniProtKB Q5VWK5

>  <IC50>
10 to 100 nM

$$$$
